System: SK-MEL-28
assay.notes: Cytotoxicity against human SK-MEL-28 cells assessed as cellular growth at 10 uM by SRB assay
Type: functional
property.measured: Activity (%)
Write the value in % as a bare number.

[
  {
    "compound.structure": "Oc1ccccc1-c1nc(-c2cccs2)no1",
    "property.measured": "Activity",
    "endpoint.value": 115.6
  },
  {
    "compound.structure": "Nc1c(C(=O)Nc2ccccc2)sc2nc3c(cc12)C(=O)CCC3",
    "property.measured": "Activity",
    "endpoint.value": 58.69
  },
  {
    "compound.structure": "COc1ccc2[nH]c(C(=O)NCc3ccccc3)cc2c1",
    "property.measured": "Activity",
    "endpoint.value": 110.55
  },
  {
    "compound.structure": "Cc1ccc2c(c1)N/C(=C/C(=O)c1ccc(Cl)cc1)C(=O)O2",
    "property.measured": "Activity",
    "endpoint.value": 116.13
  },
  {
    "compound.structure": "Cc1cc(C)c(NC(=O)c2sc3nc4c(cc3c2N)C(=O)CCC4)c(C)c1",
    "property.measured": "Activity",
    "endpoint.value": 55.98
  },
  {
    "compound.structure": "O=C(NCCc1ccccc1)c1[nH]c2ccccc2c1Cl",
    "property.measured": "Activity",
    "endpoint.value": 106.79
  },
  {
    "compound.structure": "N#Cc1ccc(NC(=O)c2sc3nc4c(cc3c2N)C(=O)CCC4)cc1",
    "property.measured": "Activity",
    "endpoint.value": 105.89
  }
]

Please find the next compound below.
Record summary for `O=C(Nc1nc2ccc(Cl)cc2s1)c1ccc(Cl)cc1Cl` : reported Activity = 107.5

Every entry's value here was drawn from ChEMBL document CHEMBL2202954.
